Target: T1, GGA1 VHS (human, UniProt Q9UJY5 17-147)
T1 construct: GGA1 VHS domain; limits in Dataset EV3; construct limits are in Dataset EV3; also called GGA1 VHS domain; source: E. coli BL21-Gold(DE3), purified, tag removed
T1 sequence (looked up): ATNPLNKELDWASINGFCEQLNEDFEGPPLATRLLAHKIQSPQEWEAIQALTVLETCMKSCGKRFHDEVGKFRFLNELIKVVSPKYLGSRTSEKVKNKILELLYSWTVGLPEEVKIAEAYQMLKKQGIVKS
Assay: fluorescence polarisation; displacement of a FITC-labelled probe peptide (5 nM in the measurement) from the protein domain (1-2 fold over the probe's KD) by a dilution series of unlabelled peptide; room temperature; 50 mM sodium phosphate pH 7.4; KD calculated from the displacement curve; for KPNA4 ARM one probe for each pocket
Settings: both partners purified
No end group written: not given here.
ENDPOINT_LABEL: Kd (µM)
Just the number in µM, nothing appended.

Answer with reported Kd of INLFEKEKEMKKSPTS (also: phosphoserine/threonine, site not given here) [GTSE1_(145–160), phosphorylated (pS)]
640
